Test system: SNB-19 CNS
Assay: NCI-60 one-dose screen, 48 h (100 = growth as untreated, 0 = no growth, -100 = all killed)
Conditions: 10 µM unless noted
This is part of a sample that, as a whole, favours compounds with a hit. Of some 83,000 tested, about 20% had one in any assay.
Please provide measured growth for the entries that follow.
Give bare numbers, in %.

Observe how each entry below is paired with its result.
# Compound, Study System, Reported Result
rows = [
    ("C=CCOc1cccc(/C=C2\\SC(=S)N(C3CC(=O)N(c4ccc(Br)cc4)C3=O)C2=O)c1 (configuration not stated)", "SNB-19 CNS", 96.5),
    ("O=C(CCn1c[n+](CC(=O)c2ccc(F)cc2)c2ccccc21)Nc1cccc2cccnc12", "SNB-19 CNS", 71.1),
    ("CCn1c(SCC(=O)Nc2cccc(C(=O)/C=C/c3ccc(C)cc3)c2)nc2ccccc2c1=O", "SNB-19 CNS", 81.2),
    ("CCn1c2ccccc2c2cc(-n3nncc3-c3ccccc3)ccc21", "SNB-19 CNS", 24.1),
    ("Nc1nc(Nc2ccccc2SSc2ccccc2Nc2nc(N)nc(-c3ccccc3)n2)nc(-c2ccccc2)n1", "SNB-19 CNS", 74.5),
]

Please give growth for each item listed below.
1. CC(=O)C1=C(C)NC(NN)=NC1c1cccc(Cl)c1 (configuration not stated)
2. CC(=O)N1C(=S)NC(=O)C1CC(C)C (configuration not stated)

## Output
103
102
